Tested on: As385
Test: Competitive indirect ELISA for detection of PQS (As385, coating antigen I-5)
Type: binding, rabbit
Conditions: PBS + 0.01% Tween + 0.1 mM EDTA; As385 dil. 1/48000; I-5 0.039 μg/mL
ASSAY_READOUT: pIC50
Interpret pIC50 as the negative base-10 log of the concentration measured in mol/L.

Prompt: Return reported pIC50; argument: CCCCCCCc1[nH]c2ccccc2c(=O)c1O [PQS, 2-heptyl-3-hydroxy-4-quinolone]
Response: 8.41
